For each of the compounds below, state its inhibition at 1 µM.
- TARGET_DESC: HIV-1 RT (Human immunodeficiency virus type 1 group M subtype B, UniProt P03367)
- Construct: Reverse transcriptase enzyme from the LAV strain of Human Immunodeficiency Virus (HIV-1) (1) was isolated; made in house; host or cells: E. coli JM109, clone pBRTprtl+ in vector pIBI21 (lac promoter, IPTG induction)
- TEST_METHOD_NOTES: Reverse Transcriptase (RT) Assay: inhibition of RNA-dependent DNA polymerase activity
- Format: biochemical
- RUN_CONDITIONS: read-out: RT Assay % inhibition
- Description: Utilizing the Reverse Transcriptase (RT) Assay described below, compounds can be tested for their ability to inhibit the RNA-dependent DNA polymerase activity of HIV-1 RT. […] The 2X concentrated stock reaction mixture is aliquoted and stored at -20°C. […] Each vial receives 2 mls of scintillation cocktail and is counted in a Beckman beta counter. […]
Answer by giving the amount and then stating its unit.

Find the measured inhibition at 1 µM: item Cc1cc(C)c2c(n1)N(C1CC1)c1ncccc1C(=O)N2 [Example 10] , target or system HIV-1 RT (Human immunodeficiency virus type 1 group M subtype B, UniProt P03367).
85%

Find the measured inhibition at 1 µM: item CCN1c2ncc([N+](=O)[O-])cc2C(=O)N(C)c2cc([N+](=O)[O-])cnc21 [Example 39] , target or system HIV-1 RT (Human immunodeficiency virus type 1 group M subtype B, UniProt P03367).
0%

Find the measured inhibition at 1 µM: item CCN1c2ncccc2C(=NOC)Nc2c(C)cc(C)nc21 [Example 67] , target or system HIV-1 RT (Human immunodeficiency virus type 1 group M subtype B, UniProt P03367).
88%

Find the measured inhibition at 1 µM: item CCN1c2ncc([N+](=O)[O-])cc2C(=O)N(C)c2cc(Cl)c([N+](=O)[O-])nc21 [Example 40] , target or system HIV-1 RT (Human immunodeficiency virus type 1 group M subtype B, UniProt P03367).
0%

Find the measured inhibition at 1 µM: item Cc1ccnc2c1NC(=S)c1cccnc1N2C1CC1 [Example 42] , target or system HIV-1 RT (Human immunodeficiency virus type 1 group M subtype B, UniProt P03367).
90%
